system_name: GST-NST2(1-184) (Arabidopsis thaliana, UniProt Q9M274 1-184)
Sequence: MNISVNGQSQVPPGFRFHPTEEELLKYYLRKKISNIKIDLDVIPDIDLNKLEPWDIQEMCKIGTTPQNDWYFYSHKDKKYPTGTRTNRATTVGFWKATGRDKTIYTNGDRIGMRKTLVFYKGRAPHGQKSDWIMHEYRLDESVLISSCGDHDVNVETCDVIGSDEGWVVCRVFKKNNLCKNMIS
protocol_details: universal protein binding microarray (PBM); high values mean tight binding
test_context: protein: recombinant; tags: GST; chain copies: 2; dsDNA, one strand shown
Rule: binding signal below 0.2 E-score gives condition met, anything at or above gives condition not met.

{"columns": ["macromolecule_sequence", "label_value"],
 "data": [
  ["GGTTTGAC", "condition met"],
  ["ATAGCGTG", "condition not met"],
  ["GGGTCAAA", "condition met"],
  ["CCACGGAA", "condition met"],
  ["ACGCAAAT", "condition not met"],
  ["CCACGTAA", "condition met"],
  ["GCACGTAA", "condition not met"],
  ["TGACTAAA", "condition met"],
  ["AGCACGCA", "condition not met"],
  ["TCGCGTAA", "condition not met"],
  ["GGTCAACA", "condition met"],
  ["CACGGCAC", "condition not met"],
  ["GTTTCCTA", "condition met"],
  ["ACGGCACC", "condition met"],
  ["GTAGCGTA", "condition not met"],
  ["AATTGACC", "condition met"],
  ["GATGCGTA", "condition met"],
  ["CTACGTAA", "condition met"],
  ["GCACGAAA", "condition met"],
  ["AAAGGAAA", "condition met"],
  ["ACCCCGCC", "condition not met"]
]}

* * *

Listed sequences paired with reported binding signal
system_name: GST-ANAC092(1-176) (Arabidopsis thaliana, UniProt Q9FKA0 1-176)
Sequence: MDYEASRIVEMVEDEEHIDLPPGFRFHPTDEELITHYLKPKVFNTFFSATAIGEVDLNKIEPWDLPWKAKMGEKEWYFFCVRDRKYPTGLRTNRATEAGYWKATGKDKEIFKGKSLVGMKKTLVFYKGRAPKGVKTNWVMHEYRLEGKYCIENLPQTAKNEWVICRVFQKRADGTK
protocol_details: universal protein binding microarray (PBM); transcription factors of Arabidopsis thaliana; high values mean tight binding
test_context: protein: recombinant; tags: GST; chain copies: 2; dsDNA, one strand shown

{"columns": ["macromolecule_sequence", "binding signal, E-score"],
 "data": [
  ["CGTACGCA", 0.392],
  ["TGAAGTAA", 0.242],
  ["CAAGGAAA", 0.231],
  ["ATTGCGTA", 0.482],
  ["ACCTTAAC", 0.126],
  ["ATGTCGTG", 0.267],
  ["AGGAAACT", 0.174],
  ["ACTAAGTA", 0.177],
  ["ACGCTTCC", 0.334],
  ["CTTTACGC", 0.294],
  ["ACGCAAAT", 0.418],
  ["GACGTAAC", 0.354],
  ["AACACGCA", 0.469],
  ["CAGTCAAC", 0.0753],
  ["ACACGATA", 0.38],
  ["ACGCAACC", 0.483],
  ["AGGGTAAT", 0.113],
  ["ACGGCAGT", 0.207],
  ["TACGCTAA", 0.433],
  ["AAGGAAAG", 0.261],
  ["ATGGCGTG", 0.443],
  ["GTTAAGCA", 0.131]
]}
